assay: Particle size and polydispersity index of nanoparticle compositions (Zetasizer Nano ZS); assay type: physicochemical; details: Table 1e, Formulated with lipid:Chol:DOPE:PEG 1 40:38.5:20:1.5
assay-endpoint: Size (nm)

compound	Size (nm)
CCCCCCCCCCCCCCOC(=O)CN(CCCCCCCCC)CCN(CCCCCCCCC)CCCCCCCCC [Compound 167]	64.5
CCCCCCCCCN(CCCCCCCCC)CCCOCCCN(CCCCCCCCC)CCN(CCCCCCCCC)CCCCCCCCC [Compound 161]	61.8
CCCCCCCCCCCCCC(=O)OCCN(CCCCCCCCC)CCN(CCCCCCCCC)CCCCCCCCC [Compound 169]	72.5

---

experiment: Lipid purity change after storage in EtOH for 96 h at 25 or 37 °C; type: physicochemical; conditions: 25° C.
assay-endpoint: Lipid % change purity in EtOH, 25° C., 96 h (%)

molecule	uom	readout-value
CCCCCCCCCCCCCCN(CCCOC(=O)CCCCCCCCC)CCC1CCN(C(=O)CN(CCCCCCCCC)CCN(CCCCCCCCC)CCCCCCCCC)C1 (stereo not drawn) [Compound 126]	%	0.6

a = CCCCCCCCCCCC(=O)N1CCN(C(=O)CN(CCCCCCCCC)CCN(CCCCCCCCC)CCCCCCCCC)CC1 [Compound 143]
b = CCCCCCCCCN(CCCCCCCCC)CCOC(=O)C1CCC(C(=O)OCCN(CCCCCCCCC)CCN(CCCCCCCCC)CCCCCCCCC)CC1 (stereo not drawn) [Compound 128]
Please indicate which item has the smaller measured Lipid % change purity in EtOH, 25° C., 96 h: a versus b // caller expects the label of the chosen entry a
(a: 1.10%, b: 6.9%)

---

test: pKa of nanoparticle compositions; type: physicochemical; settings: Table 1c
assay-endpoint: pKa

compound	pKa
CCCCCCCCCN(CCCCCCCCC)CCN(CCCCCCCCC)CC(=O)N1CCN(C(=O)CN(CCCCCCCCC)CC(C)COC(=O)CCCCC)CC1 (stereo not shown)	6.90
CCCCCCCCCCCCCCN(CCCCCCCC(=O)OCCCCC)CC(=O)N1CCN(C(=O)CN(CCCCCCCCC)CCN(CCCCCCCCC)CCCCCCCCC)CC1	6.83
CC/C=C\COC(=O)CCCN(CCCCCCCCC)CC(=O)N1CCN(C(=O)CN(CCCCCCCCC)CCN(CCCCCCCCC)CCCCCCCCC)CC1	6.99
CCCCCCCCCN(CCCCCCCCC)CCN(CCCCCCCCC)CC(=O)N1CCN(C(=O)CN(CCCCCCCCC)CCCC(=O)SCCCCC)CC1	6.85

---

assay: Lipid purity change after storage in EtOH for 96 h at 25 or 37 °C; format: physicochemical; details: 37° C.
assay-endpoint: Lipid % change purity in EtOH, 37° C., 96 h (%)

Solved entries:
molecule	readout-value
CCCCCCCCCN(CCCCCCCCC)CCN(CCCCCCCCC)CC(=O)N1CCN(C(=O)CCCC(=O)OCCCCCCC)CC1	7.63
CCCCCCCCCN(CCCCCCCCC)CCN(CCCCCCCCC)CC(=O)N1CCN(C(=O)C(C)N(CCCCCCCCC)CCCC(=O)OCCCCC)CC1 (centres unmarked)	6.5
CCCCCCCCCCCCCCN(CCCCCCCCCCCC(=O)OC)CCC1CCN(C(=O)CN(CCCCCCCCC)CCN(CCCCCCCCC)CCCCCCCCC)CC1	2

P = CCCCCCCCCCCC(=O)N1CCN(C(=O)CN(CCCCCCCCC)CCN(CCCCCCCCC)CCCCCCCCC)CC1
Q = CCCCCCCCCCCCCCN(CCCOC(=O)CCCCCCCCC)CCC1CCCN(C(=O)CN(CCCCCCCCC)CCN(CCCCCCCCC)CCCCCCCCC)C1 (centres unmarked)
R = CCCCCCCCCN(CCCCCCCCC)CCN(CCCCCCCCC)CC(=O)N1CCC(COC(=O)CN(CCCCCCCCC)CCCCCCCCC)C1 (centres unmarked)
Task for the reader: rank each entry by its Lipid % change purity in EtOH, 37° C., 96 h, from the minimum upward. Form entry: ranked labels (order as requested). P, Q, R
(P: 1.80%, Q: 4.1%, R: 31.5%)
